molecular target: Human plasma kallikrein (Homo sapiens); construct: yields a heavy chain (371 amino acids) and a light chain (248 amino acids); test: Plasma Kallikrein Assay; conditions: purified Human plasma kallikrein 0.5 nM, substrate Acetyl-K-P-R-AFC, pH 7.4
Sequence (P03952 391-638 limits assumed): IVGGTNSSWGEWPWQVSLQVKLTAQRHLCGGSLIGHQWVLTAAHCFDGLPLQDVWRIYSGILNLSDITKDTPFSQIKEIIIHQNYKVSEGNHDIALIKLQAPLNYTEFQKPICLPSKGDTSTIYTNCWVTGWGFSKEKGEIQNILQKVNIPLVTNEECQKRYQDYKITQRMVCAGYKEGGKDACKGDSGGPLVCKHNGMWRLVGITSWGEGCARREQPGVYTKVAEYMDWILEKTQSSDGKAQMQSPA
Sequence (P03952 20-390 partner limits assumed): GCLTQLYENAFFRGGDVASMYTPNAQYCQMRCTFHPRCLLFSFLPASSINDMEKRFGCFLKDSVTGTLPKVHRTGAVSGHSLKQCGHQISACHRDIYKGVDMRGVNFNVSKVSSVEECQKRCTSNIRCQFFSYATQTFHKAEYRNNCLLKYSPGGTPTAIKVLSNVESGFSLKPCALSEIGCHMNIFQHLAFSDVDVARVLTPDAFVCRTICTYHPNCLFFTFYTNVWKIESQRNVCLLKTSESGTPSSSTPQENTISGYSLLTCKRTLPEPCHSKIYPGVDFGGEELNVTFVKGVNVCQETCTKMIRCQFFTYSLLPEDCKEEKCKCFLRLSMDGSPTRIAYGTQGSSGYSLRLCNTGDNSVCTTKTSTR
pIC50: −log10 of the molar value.
READOUT_TYPE: pIC50

COMPOUND	READOUT_TYPE	OBSERVED_MEASUREMENT
O=C(Nc1cnn(Cc2cnc(N3CCC3)cn2)c1)c1cncc(-c2c(C(F)F)ccc(Cl)c2F)n1 [Example 13]	pIC50	8.14
CC(N)C1CCCN1c1ncc(Cn2cc(NC(=O)c3cncc(-c4c(C(F)F)ccc(Cl)c4F)n3)cn2)cn1 (single isomer, unassigned) [Example 160]	pIC50	7.37
CC1(O)CCN(C[C@@H]2CCCN2c2ncc(Cn3cc(NC(=O)c4cncc(-c5c(C(F)F)ccc(Cl)c5F)n4)cn3)cn2)C1 (stereo partly drawn) [Example 144]	pIC50	9.40
